Data origin: patent EP4659811A1

Biological target: VP1 capsid protein on BKV pseudovirions of genotype II (GBR-12; AB263920) (BK virus genotype II (GBR-12))
Experiment: cell-based or functional assay
endpoint label: Neutralization PSV IC50 (µg/mL)
Give bare numbers, in µg/mL.

- binder: "antibody C4P6 (antibody, V domains shown) VH: QVQLQESGPGLVRPSETLSLTCTVSGGSISPYYWNWIRQPPGKGLEWIGYIYYSGNTKYNPSLKSRVTISVDTSKNQFSLKLSSVSAADTAVYYCARDSCSGTCYLGGNWFDPWGQGTLVTVSS VL: QSVLTQPPSVSGAPGQRVTISCTGSSSNIGANNDVHWYQHLPGTAPKLLIYGNNHRPSGVPDRFSGSKSGTSASLAITGLQAEDEADYYCQSYDSSLSTSKVFGGGTKLTVL"
  endpoint unit: "µg/mL"
  measured: 0.103

INPUT: // returns reported Neutralization PSV IC50 for input antibody F3P6 (antibody, V domains shown) VH: QVQLVQSGAEVKKPGASVKVSCKASGYTFTTHIIHWVRQAPGQRLEWMGWINAGNGNTHYSEKFQGRVTLTRDTSASTAYMELSSLRSEDTAIYYCAREDQWLGRSPLEYWGQGTLVTVSS VL: EIVLTQSPGTLSLSPGERATLSCRASQSVSSSYLAWYQHKPGQAPRLLIYGASSRATGIPDRFSGSGSGTDFTLTISRLEPEDFAVYYCQQYGNSYPWTFGQGTKVEIK
OUTPUT: 0.0062
